Assay: in vivo
Parameters: species or system male CD-1 mice
Conditions: male, CD-1, mouse, iv, 1 mg/kg
Bridge positions count the residues as written; N and C are the ends. Square brackets hold non-standard residues; d marks the D form. Peptide text beside a SMILES is read from it. * marks the point of attachment. Lauroyl = CCCCCCCCCCCC(=O)*; Dab = NCC[C@H](N)C(=O)O
Result Type: level at 2 h (ng/mL)
# output: bare number, implied unit ng/mL

In: Return reported level at 2 h; argument: CCCCCCCCCCCC(=O)NCCCC[C@@H]1NC(=O)[C@H](Cc2ccc(O)cc2)NC(=O)[C@@H]2CSSC[C@H](NC(=O)[C@H](C)NC(=O)[C@H](Cc3c[nH]cn3)NC(=O)[C@H](Cc3ccc(O)cc3)NC(=O)[C@@H]3CCCN3C(=O)[C@H]3CCCN3C(=O)[C@H](CCCCN)NC1=O)C(=O)N[C@@H](CCCNC(=N)N)C(=O)N[C@@H](C)C(=O)N1CCC[C@@H]1C(=O)N[C@@H](CCN)C(=O)N[C@@H](CCCNC(=N)N)C(=O)N[C@@H](Cc1ccc(O)cc1)C(=O)N2 [Ex. 17] (cyclo(YHACRA[dP][Dab]RYCYK(Lauroyl)K[dP]P); disulfide 4-11)
Out: 178

###

Assay: Cytotoxicity, MTT reduction assay, HELA cells
Format: cell-based
Conditions: human, HELA cells (Acc57), 12.5-50 μM
Bridge positions count the residues as written; N and C are the ends. Square brackets hold non-standard residues; d marks the D form. Peptide text beside a SMILES is read from it. * marks the point of attachment. Lauroyl = CCCCCCCCCCCC(=O)*; Decanoyl = CCCCCCCCCC(=O)*; Octanoyl = CCCCCCCC(=O)*; Dab = NCC[C@H](N)C(=O)O; Dodecyl = CCCCCCCCCCCC*
Result Type: GI50 at 48 h

Recorded results for 3 compounds are shown here.
In: Need GI50 at 48 h, item CCCCCCCCCC(=O)NCC[C@@H]1NC(=O)[C@H](Cc2ccc(O)cc2)NC(=O)[C@@H]2CSSC[C@H](NC(=O)[C@H](C)NC(=O)[C@H](Cc3c[nH]cn3)NC(=O)[C@H](Cc3ccc(O)cc3)NC(=O)[C@@H]3CCCN3C(=O)[C@H]3CCCN3C(=O)[C@H](CCCCN)NC1=O)C(=O)N[C@@H](CCCNC(=N)N)C(=O)N[C@@H](C)C(=O)N1CCC[C@@H]1C(=O)N[C@@H](CCN)C(=O)N[C@@H](CCCNC(=N)N)C(=O)N[C@@H](Cc1ccc(O)cc1)C(=O)N2 [Ex. 10] (cyclo(YHACRA[dP][Dab]RYCY[Dab](Decanoyl)K[dP]P); disulfide 4-11)
Out: > 50 µM

In: Also need CCCCCCCCCCCCOc1ccc(C[C@@H]2NC(=O)[C@H](CCCNC(=N)N)NC(=O)[C@H](CCN)NC(=O)[C@H]3CCCN3C(=O)[C@H](C)NC(=O)[C@H](CCCNC(=N)N)NC(=O)[C@@H]3CSSC[C@H](NC2=O)C(=O)N[C@@H](Cc2ccc(O)cc2)C(=O)N[C@@H](CCC(N)=O)C(=O)N[C@@H](CCCCN)C(=O)N2CCC[C@@H]2C(=O)N2CCC[C@H]2C(=O)N[C@@H](Cc2ccc(O)cc2)C(=O)N[C@@H](Cc2c[nH]cn2)C(=O)N[C@@H](C)C(=O)N3)cc1 [Ex. 7] (cyclo(YHACRA[dP][Dab]RY(Dodecyl)CYQK[dP]P); disulfide 4-11) , thanks.
Out: > 35 µM

In: Would you kindly repeat that for CCCCCCCC(=O)NCCCC[C@@H]1NC(=O)[C@H](Cc2ccc(O)cc2)NC(=O)[C@@H]2CSSC[C@H](NC(=O)[C@H](Cc3ccc(O)cc3)NC(=O)[C@H](Cc3c[nH]cn3)NC(=O)[C@H](Cc3ccc(O)cc3)NC(=O)[C@@H]3CCCN3C(=O)[C@H]3CCCN3C(=O)[C@H](CCCCN)NC1=O)C(=O)N[C@@H](CO)C(=O)N[C@@H](C)C(=O)N1CCC[C@@H]1C(=O)N[C@@H](CCN)C(=O)N[C@@H](CCCNC(=N)N)C(=O)N[C@@H](Cc1ccc(O)cc1)C(=O)N2 [Ex. 12] (cyclo(YHYCSA[dP][Dab]RYCYK(Octanoyl)K[dP]P); disulfide 4-11) ?
Out: > 50 µM

Please look at the following compound next.
In: Item CCCCCCCCCCCC(=O)NCC[C@@H]1NC(=O)[C@H](Cc2ccc(O)cc2)NC(=O)[C@@H]2CSSC[C@H](NC(=O)[C@H](C)NC(=O)[C@H](Cc3c[nH]cn3)NC(=O)[C@H](Cc3ccc(O)cc3)NC(=O)[C@@H]3CCCN3C(=O)[C@H]3CCCN3C(=O)[C@H](CCCCN)NC1=O)C(=O)N[C@@H](CCCNC(=N)N)C(=O)N[C@@H](C)C(=O)N1CCC[C@@H]1C(=O)N[C@@H](CCN)C(=O)N[C@@H](CCCNC(=N)N)C(=O)N[C@@H](Cc1ccc(O)cc1)C(=O)N2 [Ex. 11] (cyclo(YHACRA[dP][Dab]RYCY[Dab](Lauroyl)K[dP]P); disulfide 4-11) has what recorded GI50 at 48 h?
Out: > 29 µM

###

Target: human CXCR4 (Homo sapiens, UniProt P61073)
Construct: expressed in transfected cells; host or cells: mouse pre-B cell line 300-19
Sequence (P61073 whole entry): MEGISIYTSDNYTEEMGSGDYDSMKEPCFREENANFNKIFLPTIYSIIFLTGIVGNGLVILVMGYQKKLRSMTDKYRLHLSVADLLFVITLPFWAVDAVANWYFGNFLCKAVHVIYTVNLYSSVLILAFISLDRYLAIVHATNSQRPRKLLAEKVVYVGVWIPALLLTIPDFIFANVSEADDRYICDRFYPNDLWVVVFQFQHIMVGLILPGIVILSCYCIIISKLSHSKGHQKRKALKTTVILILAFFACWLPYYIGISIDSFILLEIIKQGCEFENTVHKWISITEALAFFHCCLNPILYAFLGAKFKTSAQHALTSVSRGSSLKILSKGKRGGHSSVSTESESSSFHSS
Assay: Ca2+-assay: CXCR4-antagonizing activity (SDF-1 induced calcium mobilization)
Type: cell-based
Conditions: mouse pre-B cell line 300-19 transfected with human CXCR4; SDF-1 induced Ca2+ mobilization; read-out: IC50% [nM] ± SD, CXCR4 receptor
Numbered stars: 1 amine (or outer) side, 2 acyl side, 3 side chain; on linkers, the order of the positions; unused ones are H or OH. Bridge positions count the residues as written; N and C are the ends. Square brackets hold non-standard residues; d marks the D form. Peptide text beside a SMILES is read from it. * marks the point of attachment. Gly(Dodecyl) = CCCCCCCCCCCC[C@H](N)C(=O)O; X2 = CCCCCCCCCC[C@@H](N[*:1])C(=O)[*:2]; Myristoyl = CCCCCCCCCCCCCC(=O)*; Lauroyl = CCCCCCCCCCCC(=O)*; Decanoyl = CCCCCCCCCC(=O)*; Dab = NCC[C@H](N)C(=O)O
Result Type: IC50

Answered examples (4):
In: Notebook entry, human CXCR4 (Homo sapiens, UniProt P61073) assay: IC50 of CCCCCCCCCCCC[C@@H]1NC(=O)[C@H](Cc2c[nH]cn2)NC(=O)[C@H](Cc2ccc(O)cc2)NC(=O)[C@@H]2CCCN2C(=O)[C@H]2CCCN2C(=O)[C@H](CCCCN)NC(=O)[C@H](CCC(N)=O)NC(=O)[C@H](Cc2ccc(O)cc2)NC(=O)[C@@H]2CSSC[C@H](NC1=O)C(=O)N[C@@H](CCCNC(=N)N)C(=O)N[C@@H](C)C(=O)N1CCC[C@@H]1C(=O)N[C@@H](CCN)C(=O)N[C@@H](CCCNC(=N)N)C(=O)N[C@@H](Cc1ccc(O)cc1)C(=O)N2 [Ex. 2] (cyclo(YH[Gly(Dodecyl)]CRA[dP][Dab]RYCYQK[dP]P); disulfide 4-11) = ?
Out: 55.8 nM

In: // query: CCCCCCCCCCCC(=O)NCC[C@@H]1NC(=O)[C@H](Cc2ccc(O)cc2)NC(=O)[C@@H]2CSSC[C@H](NC(=O)[C@H](C)NC(=O)[C@H](Cc3c[nH]cn3)NC(=O)[C@H](Cc3ccc(O)cc3)NC(=O)[C@@H]3CCCN3C(=O)[C@H]3CCCN3C(=O)[C@H](CCCCN)NC1=O)C(=O)N[C@@H](CCCNC(=N)N)C(=O)N[C@@H](C)C(=O)N1CCC[C@@H]1C(=O)N[C@@H](CCN)C(=O)N[C@@H](CCCNC(=N)N)C(=O)N[C@@H](Cc1ccc(O)cc1)C(=O)N2 [Ex. 11] (cyclo(YHACRA[dP][Dab]RYCY[Dab](Lauroyl)K[dP]P); disulfide 4-11)
Out: 7.3 nM

In: Queued: CCCCCCCCCC(=O)NCC[C@@H]1NC(=O)[C@H](Cc2ccc(O)cc2)NC(=O)[C@@H]2CSSC[C@H](NC(=O)[C@H](C)NC(=O)[C@H](Cc3c[nH]cn3)NC(=O)[C@H](Cc3ccc(O)cc3)NC(=O)[C@@H]3CCCN3C(=O)[C@H]3CCCN3C(=O)[C@H](CCCCN)NC1=O)C(=O)N[C@@H](CCCNC(=N)N)C(=O)N[C@@H](C)C(=O)N1CCC[C@@H]1C(=O)N[C@@H](CCN)C(=O)N[C@@H](CCCNC(=N)N)C(=O)N[C@@H](Cc1ccc(O)cc1)C(=O)N2 [Ex. 10] (cyclo(YHACRA[dP][Dab]RYCY[Dab](Decanoyl)K[dP]P); disulfide 4-11)
Out: 8.1 nM

In: Subsequent entry: CCCCCCCCCC[C@H]1NC(=O)[C@H](Cc2ccc(O)cc2)NC(=O)[C@@H]2CSSC[C@H](NC(=O)[C@H](C)NC(=O)[C@H](Cc3c[nH]cn3)NC(=O)[C@H](Cc3ccc(O)cc3)NC(=O)[C@@H]3CCCN3C(=O)[C@H]3CCCN3C(=O)[C@H](CCCCN)NC1=O)C(=O)N[C@@H](CCCNC(=N)N)C(=O)N[C@@H](C)C(=O)N1CCC[C@@H]1C(=O)N[C@@H](CCN)C(=O)N[C@@H](CCCNC(=N)N)C(=O)N[C@@H](Cc1ccc(O)cc1)C(=O)N2 [Ex. 9] (cyclo(YHACRA[dP][Dab]RYCY[X2]K[dP]P); disulfide 4-11)
Out: 91.3 nM

With those in mind, consider the next molecule.
In: Request - read-out IC50 | tested on human CXCR4 (Homo sapiens, UniProt P61073) | molecule CCCCCCCCCCCCCC(=O)NCCCC[C@@H]1NC(=O)[C@H](Cc2ccc(O)cc2)NC(=O)[C@@H]2CSSC[C@H](NC(=O)[C@H](C)NC(=O)[C@H](Cc3c[nH]cn3)NC(=O)[C@H](Cc3ccc(O)cc3)NC(=O)[C@@H]3CCCN3C(=O)[C@H]3CCCN3C(=O)[C@H](CCCCN)NC1=O)C(=O)N[C@@H](CCCNC(=N)N)C(=O)N[C@@H](C)C(=O)N1CCC[C@@H]1C(=O)N[C@@H](CCN)C(=O)N[C@@H](CCCNC(=N)N)C(=O)N[C@@H](Cc1ccc(O)cc1)C(=O)N2 [Ex. 19] (cyclo(YHACRA[dP][Dab]RYCYK(Myristoyl)K[dP]P); disulfide 4-11)
Out: 9.1 nM
